Reported EC50 values for the following binders.
experimental_target: T1, Proleukin® (aldesleukin) (human, UniProt P60568 21-153, limits assumed)
T1 construct: Variant of human wt IL-2 with C145S (C125S on mature IL-2); also called IL-2 (Proleukin®); human IL-2 (Proleukin)
T1 sequence (P60568 other isoform, or with tags, fused parts or gaps limits assumed): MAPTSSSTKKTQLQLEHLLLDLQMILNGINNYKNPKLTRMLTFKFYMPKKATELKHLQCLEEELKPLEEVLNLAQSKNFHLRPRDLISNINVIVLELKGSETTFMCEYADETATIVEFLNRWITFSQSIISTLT
test_name: ELISA, coated Proleukin, serially diluted supernatant
assay_endpoint: EC50 (nM)

binder	assay_endpoint	unit_name	experimental_value
Antibody No: 30 (antibody, human IgG1, kappa, N297A, V domains shown, VH N58Y + T30S; VK M33L + A50S; HEK293F supernatant) VH: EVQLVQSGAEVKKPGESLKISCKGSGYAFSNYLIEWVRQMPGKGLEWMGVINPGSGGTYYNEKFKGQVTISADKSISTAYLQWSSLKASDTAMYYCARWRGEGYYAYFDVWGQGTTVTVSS VL: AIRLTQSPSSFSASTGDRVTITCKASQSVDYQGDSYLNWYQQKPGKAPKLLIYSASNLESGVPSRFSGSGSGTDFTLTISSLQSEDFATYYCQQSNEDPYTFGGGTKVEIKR	EC50	nM	0.22
Antibody No: 27 (antibody, human IgG1, kappa, N297A, V domains shown, VH N58Y + T30S; VK M33L; HEK293F supernatant) VH: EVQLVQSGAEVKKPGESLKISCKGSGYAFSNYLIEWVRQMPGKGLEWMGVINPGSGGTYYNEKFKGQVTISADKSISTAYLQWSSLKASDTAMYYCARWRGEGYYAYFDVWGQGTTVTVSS VL: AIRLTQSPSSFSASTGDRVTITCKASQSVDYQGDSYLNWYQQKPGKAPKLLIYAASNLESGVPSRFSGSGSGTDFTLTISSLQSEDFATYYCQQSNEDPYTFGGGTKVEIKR	EC50	nM	0.39
Antibody No: 34 (antibody, human IgG1, kappa, N297A, V domains shown, VK A50T; HEK293F supernatant) VH: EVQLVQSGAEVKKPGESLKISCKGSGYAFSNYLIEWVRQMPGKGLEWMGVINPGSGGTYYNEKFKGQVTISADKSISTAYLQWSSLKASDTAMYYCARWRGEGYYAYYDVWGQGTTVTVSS VL: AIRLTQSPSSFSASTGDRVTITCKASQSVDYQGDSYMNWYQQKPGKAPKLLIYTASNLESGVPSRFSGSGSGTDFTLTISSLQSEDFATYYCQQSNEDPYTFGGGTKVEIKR	EC50	nM	0.65
